Ref: patent US20090291081A1

# test.system: T1, human IL-1α (human, UniProt P01583 113-271)
# T1 sequence (looked up): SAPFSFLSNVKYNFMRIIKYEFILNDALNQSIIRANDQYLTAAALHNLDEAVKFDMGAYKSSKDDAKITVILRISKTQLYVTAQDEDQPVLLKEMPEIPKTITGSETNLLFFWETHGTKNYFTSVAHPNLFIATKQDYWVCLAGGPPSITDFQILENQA
# assay.info: cell-based or functional assay
Could you please report measured ND50 for the items listed next?
Answers are plain numbers, in nM.

Consider the worked cases shown below.
ABT1-148 (other, VK dAb) VL: DIQMTQSPSSLSASVGDRVTITCRASQSISSYLNWYQQKPGKAPKLLIGALSGLQSGVPSRFSGSGSGTDFTLTISSLQPEDFATYYCMQWYRHPSTFGQGTKVEIKR	100
ABT1-95-A2 (other) VL: DIQMTQSPSSLSASVGDRVTITCRILQPPGRNLRWYQQKPGKAPKLLIYSKSFLEPGVPSRFSGSGSGTDFTLTISSLQPEDFATYHCQQGYRWPVTFGQGTKVEIKR	0.133
ABT1-95-179 (other) VL: DIQMTQSPSSLSASVGDRVTITCRASQPIVRNLRWYQQKPGKAPKLLIYSSSYLEPGVPSRFSGSGSGTDFTLTISSLQPEDFATYHCRQGYRWPPTFGQGTKVEIKR	0.022

Dear colleague, could you send me ND50 for each of the items below? Thanks.
1. ABT1-95-21 (other, VK dAb) VL: DIQMTQSPSSLSASVGDRVTITCRASQPIVRNLRWYQQKPGKAPKLLIYSSSYLEPGVPSRFSGSGSGTDFTLTISSLQPEDFATYYCQQGYRWPVTFGQGTKVEIKR
2. ABT1-95-85 (other, VK dAb) VL: DIQMTQSPSSLSASVGDRVTITCRAGQPIVRNLRWYQQKPGKAPKLLIYSGSYLEPGVPSRFSGSGSGTDFTLTISSLQPEDFATYHCLQGYRWPVTFGQGTKVEIKR
3. ABT1-122 (other, VK dAb) VL: DIQMTQSPSSLSASVGDRVTITCRASQPIWTELNWYQQKPGKAPKLLIYGSSSLQSGVPSRFSGSGSGTDFTLTISSLQPEDFATYYCQQFAYFPATFGQGTKVEIKR

Result ::
[0.61, 0.713, 100]

Each binder below has a reported value. Please supply its ND50.
1. ABT1-141-29 (other) VL: DIQVTQSPSSLSASVGDRVTITCRASQWIQKQLAWYQLKPGKAPKLLIYSSSYLQSGVPSRFSGSGSGTDFTLTISSLQPEDFATYYCQQHLRVPFTFGQGTKVEIKR
2. ABT1-96 (other, VH dAb) VH: EVQLLESGGGLVQPGGSLRLSCAASGFTFNQYNMFWVRQAPGKGLEWVSVISGSGRFTYYADSVKGRFTISRDNSKNTLYLQMNSLRAEDTAVYYCAKGWWRRDPPFDYWGQGTLVTVSS

Result ::
20
17
